Biological target: Cytochrome P450 2C9 (Homo sapiens, UniProt P11712)
Sequence (P11712 whole entry): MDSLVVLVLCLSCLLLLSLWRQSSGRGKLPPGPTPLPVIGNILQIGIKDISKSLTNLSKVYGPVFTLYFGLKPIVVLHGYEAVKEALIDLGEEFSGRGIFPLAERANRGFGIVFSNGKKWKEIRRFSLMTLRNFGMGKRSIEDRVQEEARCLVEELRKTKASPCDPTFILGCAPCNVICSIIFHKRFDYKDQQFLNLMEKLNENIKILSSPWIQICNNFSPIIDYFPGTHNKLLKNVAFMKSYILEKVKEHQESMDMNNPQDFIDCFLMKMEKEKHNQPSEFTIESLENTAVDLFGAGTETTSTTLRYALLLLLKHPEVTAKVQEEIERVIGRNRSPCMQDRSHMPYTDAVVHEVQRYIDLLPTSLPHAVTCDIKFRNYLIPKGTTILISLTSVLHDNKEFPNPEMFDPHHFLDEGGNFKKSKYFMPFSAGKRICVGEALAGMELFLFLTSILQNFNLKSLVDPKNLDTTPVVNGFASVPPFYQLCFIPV
Each entry below lists one item and its recorded IC50 value.

Cc1cc(C)c(S(=O)(=O)N[C@@H](C)CNc2cccc3c2cnn3-c2ccc(F)cc2)c(C)c1 7.9 µM

Measured IC50, Cc1nn(C2CCCC2)c(C)c1S(=O)(=O)N[C@@H](C)CNc1cccc2c1cnn2-c1ccc(F)nc1 : 17 µM

---

Target: Mineralocorticoid receptor (Homo sapiens)
Sequence (P08235 whole entry): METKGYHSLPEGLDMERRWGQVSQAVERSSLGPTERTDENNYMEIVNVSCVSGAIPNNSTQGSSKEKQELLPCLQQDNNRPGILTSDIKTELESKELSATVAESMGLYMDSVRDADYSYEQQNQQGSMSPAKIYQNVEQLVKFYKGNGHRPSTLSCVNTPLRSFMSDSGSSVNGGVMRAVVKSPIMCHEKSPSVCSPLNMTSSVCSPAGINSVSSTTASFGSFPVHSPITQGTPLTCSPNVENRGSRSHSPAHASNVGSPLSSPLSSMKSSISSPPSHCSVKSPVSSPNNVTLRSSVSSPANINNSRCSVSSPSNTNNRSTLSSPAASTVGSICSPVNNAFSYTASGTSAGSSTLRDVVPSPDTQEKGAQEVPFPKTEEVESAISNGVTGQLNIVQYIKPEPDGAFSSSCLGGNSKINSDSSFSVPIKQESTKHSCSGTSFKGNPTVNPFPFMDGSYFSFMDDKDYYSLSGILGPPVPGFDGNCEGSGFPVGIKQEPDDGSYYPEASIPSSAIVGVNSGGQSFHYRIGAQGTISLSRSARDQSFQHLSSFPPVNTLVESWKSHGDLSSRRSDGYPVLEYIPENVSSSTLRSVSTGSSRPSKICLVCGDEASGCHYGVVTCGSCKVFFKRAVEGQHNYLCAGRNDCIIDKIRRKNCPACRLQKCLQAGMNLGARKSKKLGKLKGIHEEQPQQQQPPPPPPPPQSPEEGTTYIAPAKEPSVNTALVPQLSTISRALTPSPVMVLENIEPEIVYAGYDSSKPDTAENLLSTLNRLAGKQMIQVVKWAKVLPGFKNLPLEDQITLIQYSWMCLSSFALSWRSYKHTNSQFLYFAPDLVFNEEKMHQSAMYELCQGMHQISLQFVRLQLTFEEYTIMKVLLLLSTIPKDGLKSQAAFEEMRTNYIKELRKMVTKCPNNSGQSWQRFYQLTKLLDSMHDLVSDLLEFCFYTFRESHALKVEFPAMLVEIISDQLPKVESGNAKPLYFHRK
pIC50: −log10 of the molar value.
quantity_measured: pIC50

Measured pIC50, Cc1nn(C2CCCC2)c(C)c1S(=O)(=O)N[C@@H](C)CNc1cccc2c1cnn2-c1ccc(F)nc1 : < 5.30

---

Molecular target: Cytochrome P450 1A2 (Homo sapiens, UniProt P05177)
Sequence (P05177 whole entry): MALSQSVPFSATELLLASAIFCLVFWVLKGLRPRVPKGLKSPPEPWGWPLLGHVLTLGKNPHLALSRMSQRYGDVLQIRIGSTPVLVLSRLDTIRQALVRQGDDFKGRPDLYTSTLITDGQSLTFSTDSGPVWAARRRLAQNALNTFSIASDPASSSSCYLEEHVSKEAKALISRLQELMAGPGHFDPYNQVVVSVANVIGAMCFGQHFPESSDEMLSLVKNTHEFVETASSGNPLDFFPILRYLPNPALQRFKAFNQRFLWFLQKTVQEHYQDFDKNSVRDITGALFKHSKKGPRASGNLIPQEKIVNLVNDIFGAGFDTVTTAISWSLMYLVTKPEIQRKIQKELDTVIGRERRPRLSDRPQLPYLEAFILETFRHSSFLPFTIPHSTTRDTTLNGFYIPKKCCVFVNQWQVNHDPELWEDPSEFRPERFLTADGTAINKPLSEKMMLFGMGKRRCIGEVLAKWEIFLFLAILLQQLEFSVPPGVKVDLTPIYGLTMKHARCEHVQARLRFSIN
quantity_measured: IC50

Cc1cc(C)c(S(=O)(=O)N[C@@H](C)CNc2cccc3c2cnn3-c2ccc(F)cc2)c(C)c1 > 20 µM

We now examine a further molecule.
Measured IC50, Cc1nn(C2CCCC2)c(C)c1S(=O)(=O)N[C@@H](C)CNc1cccc2c1cnn2-c1ccc(F)nc1 : > 20 µM

---

Target: Cytochrome P450 2D6 (Homo sapiens)
Sequence (P10635 whole entry): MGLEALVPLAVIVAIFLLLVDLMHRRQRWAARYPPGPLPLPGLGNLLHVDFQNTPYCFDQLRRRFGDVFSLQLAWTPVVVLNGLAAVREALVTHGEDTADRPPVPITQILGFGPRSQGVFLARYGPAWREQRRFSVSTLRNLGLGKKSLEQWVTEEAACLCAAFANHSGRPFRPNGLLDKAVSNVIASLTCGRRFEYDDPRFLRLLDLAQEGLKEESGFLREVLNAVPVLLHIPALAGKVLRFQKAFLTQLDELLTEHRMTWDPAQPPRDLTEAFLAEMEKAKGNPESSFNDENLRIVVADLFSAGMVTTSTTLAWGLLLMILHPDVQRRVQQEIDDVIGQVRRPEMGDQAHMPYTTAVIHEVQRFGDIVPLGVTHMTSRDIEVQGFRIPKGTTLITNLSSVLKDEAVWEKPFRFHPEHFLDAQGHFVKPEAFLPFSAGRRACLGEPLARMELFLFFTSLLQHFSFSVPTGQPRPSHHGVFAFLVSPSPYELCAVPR
quantity_measured: IC50

# Cc1nn(C2CCCC2)c(C)c1S(=O)(=O)N[C@@H](C)CNc1cccc2c1cnn2-c1ccc(F)nc1 with Cytochrome P450 2D6 (Homo sapiens): IC50 is > 20 µM

---

Test: Volume of distribution at steady state in iv dosed rat
Assay type: ADME, organism-based
Conditions: in vivo, read-out: Vdss
quantity_measured: Vd (L/kg)
Numeric answer only, unit L/kg assumed.

Measured Vd, Cc1nn(C2CCCC2)c(C)c1S(=O)(=O)N[C@@H](C)CNc1cccc2c1cnn2-c1ccc(F)nc1 : 15

---

Biological target: Estrogen receptor beta (Homo sapiens)
Sequence (Q92731 whole entry): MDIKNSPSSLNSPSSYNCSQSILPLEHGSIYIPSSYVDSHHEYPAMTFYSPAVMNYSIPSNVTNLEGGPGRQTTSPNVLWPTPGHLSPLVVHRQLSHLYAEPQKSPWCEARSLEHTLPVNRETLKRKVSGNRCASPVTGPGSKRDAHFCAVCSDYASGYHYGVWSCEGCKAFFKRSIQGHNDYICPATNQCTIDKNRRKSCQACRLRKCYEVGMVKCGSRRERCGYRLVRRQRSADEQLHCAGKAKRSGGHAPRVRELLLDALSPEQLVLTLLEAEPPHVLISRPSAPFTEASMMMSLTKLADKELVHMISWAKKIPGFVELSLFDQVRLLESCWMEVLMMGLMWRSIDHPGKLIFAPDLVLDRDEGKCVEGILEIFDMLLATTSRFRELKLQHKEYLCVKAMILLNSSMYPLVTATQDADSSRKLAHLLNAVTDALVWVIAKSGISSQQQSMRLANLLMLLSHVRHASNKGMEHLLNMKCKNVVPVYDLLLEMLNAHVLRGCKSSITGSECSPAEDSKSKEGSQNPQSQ
pIC50: −log10 of the molar value.
quantity_measured: pIC50

# Cc1nn(C2CCCC2)c(C)c1S(=O)(=O)N[C@@H](C)CNc1cccc2c1cnn2-c1ccc(F)nc1 with Estrogen receptor beta (Homo sapiens): pIC50 is < 5.30

---

Endpoint: IC50. System: Glucocorticoid receptor (Homo sapiens, UniProt P04150). Items follow.
Numeric answer only, unit nM assumed.

Solved entries:
molecule	numeric_value
Cc1cc(C)c(S(=O)(=O)N[C@@H](C)CNc2cccc3c2cnn3-c2cccnc2)c(C)c1	2
Cc1cc(C)c(S(=O)(=O)N[C@H](CNc2cccc3c2cnn3-c2ccc(F)cc2)C(C)C)c(C)c1	2.1
Cc1ccc(-n2ncc3c(NC[C@H](C)NS(=O)(=O)c4c(C)cc(C)cc4C)cccc32)cc1	12
Cc1cc(C)c(S(=O)(=O)N[C@@H](C)CNc2cccc3c2cnn3-c2ccc(F)c(C)c2)c(C)c1	23
Cc1cc(C)c(S(=O)(=O)NC(COc2cccc3c2cnn3-c2ccc(F)cc2)C(F)(F)F)c(C)c1 (racemic)	36

Measured IC50, Cc1nn(C2CCCC2)c(C)c1S(=O)(=O)N[C@@H](C)CNc1cccc2c1cnn2-c1ccc(C#N)cc1 : 13

---

Assay: Lipophilicity, log D of the compound at pH 7.4
Format: physicochemical
Details: buffer
Each entry below lists one item and its recorded logD value.
Lab note: jot down the number only; don't add units.

Cc1nn(C2CCCC2)c(C)c1S(=O)(=O)N[C@@H](C)COc1cccc2cnccc12 3.5
Cc1cc(C)c(S(=O)(=O)N[C@@H](C)COc2cccc3cnccc23)c(C)c1 4.1
Cc1nn(C2CCCC2)c(C)c1S(=O)(=O)N[C@@H](C)CNc1cccc2c1cnn2-c1ccc(F)nc1 3.7

We now examine a further compound.
Measured logD, Cc1cc(C)c(S(=O)(=O)N[C@@H](C)CNc2cccc3c2cnn3-c2ccc(F)cc2)c(C)c1 : 4.1

---

Test: Intrinsic clearance in rat microsomes
Type: ADME, Microsome
quantity_measured: microsomal CLint

Measured microsomal CLint, Cc1nn(C2CCCC2)c(C)c1S(=O)(=O)N[C@@H](C)CNc1cccc2c1cnn2-c1ccc(F)nc1 : > 200 µL/min/mg

---

Target: Glucocorticoid receptor (Homo sapiens, UniProt P04150)
quantity_measured: log10(IC50) (log10 of the value in nM)
Scale type: logarithmic (base 10). Underlying IC50 unit: nM.

compound	log10(IC50)
Cc1cc(C)c(S(=O)(=O)N[C@@H](C)CNc2cccc3c2cnn3-c2ccc(Cl)cc2)c(C)c1	0.57

# Cc1cc(C)c(S(=O)(=O)N[C@@H](C)CNc2cccc3c2cnn3-c2cccc(F)c2)c(C)c1 with Glucocorticoid receptor (Homo sapiens, UniProt P04150): log10(IC50) is 0.79

# Cc1cccc(-n2ncc3c(NC[C@H](C)NS(=O)(=O)c4c(C)cc(C)cc4C)cccc32)c1 with Glucocorticoid receptor (Homo sapiens, UniProt P04150): log10(IC50) is 0.82

# Cc1nn(C2CCCC2)c(C)c1S(=O)(=O)N[C@@H](C)CNc1cccc2c1cnn2-c1ccc(F)cc1 with Glucocorticoid receptor (Homo sapiens, UniProt P04150): log10(IC50) is 0.99

# Cc1nn(C2CCCC2)c(C)c1S(=O)(=O)N[C@@H](C)CNc1cccc2c1cnn2-c1cncnc1 with Glucocorticoid receptor (Homo sapiens, UniProt P04150): log10(IC50) is 1.63

---

Each entry below lists one item and its recorded IC50 value.
Target: Glucocorticoid receptor (Homo sapiens, UniProt P04150)
Numeric answer only, unit nM assumed.

Solved entries:
Cc1nn(C2CCCC2)c(C)c1S(=O)(=O)N[C@@H](C)CNc1cccc2c1cnn2-c1ccc(F)nc1 7.2
Cc1cc(C)c(S(=O)(=O)N[C@@H](C)CNc2cccc3c2cnn3-c2cncnc2)c(C)c1 6.9

Measured IC50, Cc1ccc(-n2ncc3c(NC[C@H](C)NS(=O)(=O)c4c(C)cc(C)cc4C)cccc32)cc1 : 4.5

Measured IC50, Cc1cc(C)c(S(=O)(=O)N[C@@H](C)CNc2cccc3nc(C)ccc23)c(C)c1 : 2200

---

Biological target: Glucocorticoid receptor (Homo sapiens, UniProt P04150)
Sequence (P04150 whole entry): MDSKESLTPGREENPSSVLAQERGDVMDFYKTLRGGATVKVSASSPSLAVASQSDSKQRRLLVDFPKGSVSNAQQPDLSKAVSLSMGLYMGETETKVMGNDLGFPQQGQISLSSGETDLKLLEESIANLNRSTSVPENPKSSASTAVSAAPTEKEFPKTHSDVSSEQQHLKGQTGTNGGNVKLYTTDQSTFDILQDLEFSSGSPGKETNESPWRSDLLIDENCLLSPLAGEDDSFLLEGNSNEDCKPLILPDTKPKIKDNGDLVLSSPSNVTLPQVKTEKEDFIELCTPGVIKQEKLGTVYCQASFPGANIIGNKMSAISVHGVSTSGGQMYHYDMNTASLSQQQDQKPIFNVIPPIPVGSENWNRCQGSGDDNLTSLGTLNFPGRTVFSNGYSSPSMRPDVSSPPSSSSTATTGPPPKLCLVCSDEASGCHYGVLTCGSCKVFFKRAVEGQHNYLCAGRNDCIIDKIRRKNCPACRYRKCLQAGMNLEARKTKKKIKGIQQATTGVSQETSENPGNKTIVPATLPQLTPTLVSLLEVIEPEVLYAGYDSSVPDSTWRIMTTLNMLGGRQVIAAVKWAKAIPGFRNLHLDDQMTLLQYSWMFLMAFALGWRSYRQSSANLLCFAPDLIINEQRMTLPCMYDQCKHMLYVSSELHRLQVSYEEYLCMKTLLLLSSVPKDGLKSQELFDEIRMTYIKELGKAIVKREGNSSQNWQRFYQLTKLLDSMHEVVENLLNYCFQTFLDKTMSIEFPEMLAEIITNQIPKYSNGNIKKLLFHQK
Each entry below lists one item and its recorded IC50 value.
Numeric answer only, unit nM assumed.

Solved entries:
molecule	IC50, nM
C[C@@H](COc1cccc2ncccc12)NS(=O)(=O)c1c(Cl)cc(Cl)cc1Cl	80
Cc1cc(C)c(S(=O)(=O)NC(COc2cccc3c2cnn3-c2ccc(F)cc2)C(F)(F)F)c(C)c1 (racemic)	3.8
Cc1cc(C)c(S(=O)(=O)N[C@@H](C)CNc2cccc3nc(C)ccc23)c(C)c1	160
C[C@@H](COc1cccc2ncccc12)NS(=O)(=O)c1cccc(C#N)c1	1800
Cc1cc(C)c(S(=O)(=O)N[C@@H](C)CNc2cccc3c2cnn3-c2ccc(Cl)cc2)c(C)c1	3.4

We now examine a further molecule.
Measured IC50, Cc1cc(C)c(S(=O)(=O)N[C@@H](C)CCc2ccccc2)c(C)c1 : 55

Ref: ChEMBL document CHEMBL3259563
